Form field: MIC (one value per entry).
- Test system: A. baumannii isolates
- method summary: Checkerboard testing (compound (I)/antibacterial agent interaction, FIC index)
- Type: cell-based, Acinetobacter baumannii
- assay context: Acinetobacter baumannii, A. baumannii 650216, meropenem-resistant; read-out: MIC
Output spec: scalar in µg/mL, unitless text.

Below: 3 compounds and their reported MIC.
molecular string: NC[C@H]1O[C@H](O[C@H]2[C@H](O)[C@@H](O[C@H]3O[C@H](CO)[C@@H](O)[C@H](N)[C@H]3O)[C@H](N)C[C@@H]2N)[C@H](N)C[C@@H]1O
unit: µg/mL
MIC: 1
--
molecular string: CCc1cc(O)c(Oc2ccc(C(N)=O)cc2F)cc1F
unit: µg/mL
MIC: 8
--
molecular string: NCC[C@H](O)C(=O)N[C@@H]1C[C@H](N)[C@@H](O[C@H]2O[C@H](CN)[C@@H](O)[C@H](O)[C@H]2O)[C@H](O)[C@H]1O[C@H]1O[C@H](CO)[C@@H](O)[C@H](N)[C@H]1O
unit: µg/mL
MIC: 4

Kindly state the measured MIC obtained for C[C@@H](O)[C@H]1C(=O)N2C(C(=O)O)=C(S[C@@H]3CN[C@H](C(=O)N(C)C)C3)[C@H](C)[C@H]12 with A. baumannii isolates.
64

====

Form field: MIC (one value per entry).
- Tested on: A. baumannii isolates
- method summary: Checkerboard testing (compound (I)/antibacterial agent interaction, FIC index)
- Type: cell-based, Acinetobacter baumannii
- assay context: Acinetobacter baumannii, A. baumannii 672190, susceptible; read-out: MIC

molecular string: C[C@@H](O)[C@H]1C(=O)N2C(C(=O)O)=C(S[C@@H]3CN[C@H](C(=O)N(C)C)C3)[C@H](C)[C@H]12
measured target: A. baumannii isolates
meas value: 0.5 µg/mL

State the recorded MIC for this entry: NCC[C@H](O)C(=O)N[C@@H]1C[C@H](N)[C@@H](O[C@H]2O[C@H](CN)[C@@H](O)[C@H](O)[C@H]2O)[C@H](O)[C@H]1O[C@H]1O[C@H](CO)[C@@H](O)[C@H](N)[C@H]1O
4 µg/mL

State the recorded MIC for this entry: CCc1cc(O)c(Oc2ccc(C(N)=O)cc2F)cc1F
8 µg/mL

State the recorded MIC for this entry: NC[C@H]1O[C@H](O[C@H]2[C@H](O)[C@@H](O[C@H]3O[C@H](CO)[C@@H](O)[C@H](N)[C@H]3O)[C@H](N)C[C@@H]2N)[C@H](N)C[C@@H]1O
1 µg/mL

====

Form field: MIC Range (one value per entry).
- Tested on: A. baumannii isolates
- method summary: Individual antimicrobial susceptibility testing (MIC, broth microdilution, CLSI)
- Format: cell-based, Acinetobacter baumannii
- assay context: Susceptible isolates, N=22

State the recorded MIC Range for this entry: CCc1cc(O)c(Oc2ccc(C(N)=O)cc2F)cc1F [compound (I)]
0.5 to 8 µg/mL

State the recorded MIC Range for this entry: NCC[C@H](O)C(=O)N[C@@H]1C[C@H](N)[C@@H](O[C@H]2O[C@H](CN)[C@@H](O)[C@H](O)[C@H]2O)[C@H](O)[C@H]1O[C@H]1O[C@H](CO)[C@@H](O)[C@H](N)[C@H]1O [amikacin]
0.25 to 8 µg/mL

State the recorded MIC Range for this entry: NC[C@H]1O[C@H](O[C@H]2[C@H](O)[C@@H](O[C@H]3O[C@H](CO)[C@@H](O)[C@H](N)[C@H]3O)[C@H](N)C[C@@H]2N)[C@H](N)C[C@@H]1O [tobramycin]
0.12 to 2 µg/mL

State the recorded MIC Range for this entry: C[C@@H](O)[C@H]1C(=O)N2C(C(=O)O)=C(S[C@@H]3CN[C@H](C(=O)N(C)C)C3)[C@H](C)[C@H]12 [meropenem]
0.06 to 4 µg/mL
